Target: Major prion protein (Homo sapiens)
Experiment: reduces human prion protein on the cell surface, primary screen, cell-based, TR-FRET (AID 720596)
Settings: cell surface PrPC, TR-FRET read-out; at 13.8 µM
The campaign covered roughly 370,000 compounds. About 1,600 (0.43%) were called active. Cut-off read from the data, not from the text of the source: active = inhibition above about 24%; inactive = the rest. For the sample, actives were picked, then their nearest neighbours and some compounds at random.
I would appreciate it if you answered using one of these outcomes: active, inactive

As a guide, the following entries are already answered.
COMPOUND	ASSIGNED CATEGORY
COc1ccc(NC(=O)COC(=O)CNC(=O)C2CCCCC2)cc1	active
COc1ccc(NC(=O)CN(C)C(=O)CNC(=O)C2CCCCC2)cc1	inactive
O=C(Nc1cccn(Cc2ccccc2Cl)c1=O)NC1CCCCC1	active
C=CCOc1cccc(C2C(C(=O)c3ccc(C)o3)=C(O)C(=O)N2CCN2CCOCC2)c1 (stereo unspecified)	inactive
CCN(CC(=O)NCc1ccc(F)cc1)S(=O)(=O)c1ccc(Cl)s1	inactive

Inquiry: How did this test come out for Cc1nnc(NC(=O)CSc2nc(C3CCCCC3)nc3ccccc23)s1 ?
Reply text: inactive

Inquiry: Tell me the recorded outcome of this test for Cc1nn(-c2ccccc2)c(=O)c2noc(C)c12 .
Reply text: inactive

Inquiry: Could you please tell me the result logged for COc1ccccc1NC(=O)COC(=O)CNC(=O)C1CCCCC1 in this assay?
Reply text: inactive

Inquiry: Tell me the assay call for Cc1noc(C)c1NC(=O)Nc1ccc2c(c1)C(=O)N([C@H](C)CO)C[C@H](C)[C@@H](CN(C)S(=O)(=O)c1cn(C)cn1)O2 please.
Reply text: inactive

Inquiry: Test call for this compound, please: CC(=O)c1c(C)[nH]c(=S)c(C#N)c1-c1ccc(F)cc1
Reply text: inactive

Inquiry: Please indicate how the test categorized CC(C)(C)NC(=O)COc1ccc(CNc2ccc3[nH]c(=O)[nH]c3c2)cc1 .
Reply text: inactive
